I'd be grateful if you could share measured glass transition temperature for these entries.
// return numeric value only (unit: °C, not printed)

Form: molecule = *CC(*)(C)C(=O)OCCCCOc1ccc(OC(=O)c2ccc(OC)cc2)cc1 (repeat unit) ; glass transition temperature = 57.00

glass transition temperature in this record for *Oc1ccc(C(=O)Nc2ccc(S(=O)(=O)c3ccc(NC(=O)c4ccc(Oc5nc(*)nc(Sc6ccccc6)n5)cc4)cc3)cc2)cc1 (repeat unit) : 310.00

The molecule listed as *CCCCCCCCCCCCOC(=O)Nc1ccc(Cc2ccc(NC(=O)O*)cc2)cc1 (repeat unit) shows glass transition temperature equal to 43.00

Form: molecule = *CCOCCOC(=O)C(CCCCC)C(=O)O* (repeat unit) ; glass transition temperature = -47.00

The recorded glass transition temperature for entry *c1cccc(C(=O)Nc2ccc(Oc3cccc(Oc4ccc(NC(=O)c5cccc(N6C(=O)c7ccc(-c8ccc9c(c8)C(=O)N(*)C9=O)cc7C6=O)c5)cc4)c3)cc2)c1 (repeat unit) equals 253.00

GET /value?item= *CCCCCCOC(=O)C(Cc1ccccc1)NC(=O)/C=C/C(=O)NC(Cc1ccccc1)C(=O)O* (repeat unit) &field=glass transition temperature returns 92.00

Per the record, *CC(*)(C)C(=O)Oc1ccc(/N=N/c2ccc(C#N)cc2)cc1 (repeat unit) has glass transition temperature of 185.00

Lab note: measured glass transition temperature of *c1ccc(-c2ccc(N(c3ccccc3)c3ccc(-c4ccc(N(c5ccccc5)c5ccc(-c6ccc(-n7c(=O)c8cc9c(=O)n(*)c(=O)c9cc8c7=O)cc6)cc5)cc4)cc3)cc2)cc1 (repeat unit) was 220.00

// field: glass transition temperature; key: *OP(=O)(Oc1ccccc1)Oc1cccc2c(*)cccc12 (repeat unit) ; value = 138.00

// glass transition temperature lookup, molecule = *c1ccc(-c2ccc3c(c2)C(CCCCCCC#N)(CCCCCCC#N)c2cc(*)ccc2-3)cc1 (repeat unit) , result: 90.00

// sample *Oc1cc(C(C)(C)C)c(Oc2ccc(C(=O)Nc3ccc(C(C)(C)c4ccc(NC(=O)c5ccc(*)cc5)cc4)cc3)cc2)cc1C(C)(C)C (repeat unit) , its glass transition temperature was 254.00

Lab note: */C=C(/*)c1ccccc1C[Si](C)(C)C (repeat unit) gave glass transition temperature of 170.00

Lab note: *c1cccc(Oc2ccc(C#N)c(Oc3cccc(N4C(=O)c5ccc(Oc6ccc7c(c6)C(=O)N(*)C7=O)cc5C4=O)c3)c2)c1 (repeat unit) gave glass transition temperature of 196.00

Lab note: measured glass transition temperature of *Oc1cccc(Oc2ccc(/N=C/c3ccc(N(c4ccccc4)c4ccc(/C=N/c5ccc(*)cc5)cc4)cc3)cc2)c1 (repeat unit) was 174.00

Form: molecule = *C1C(=O)N(c2cc(Br)c(O[Si](c3ccccc3)(c3ccccc3)c3ccccc3)c(Br)c2)C(=O)C1* (repeat unit) ; glass transition temperature = 179.00

The reported value for *c1ccc2c(c1)C(=O)N(c1ccc(Oc3ccc(Oc4ccc(N5C(=O)c6ccc(C(*)(C(F)(F)F)C(F)(F)F)cc6C5=O)cc4)cc3)c(C(F)(F)F)c1)C2=O (repeat unit) in terms of glass transition temperature is 260.80

response.value for *Oc1ccc(Oc2ccc(C(=O)c3ccc(NC(=O)c4ccc(C(=O)Nc5ccc(C(=O)c6ccc(*)cc6)cc5)cc4)cc3)cc2)cc1 (repeat unit) (field: glass transition temperature) = 224.00

# glass transition temperature of *Nc1ccccc1CCc1ccccc1NC(=O)Nc1ccc(CCc2ccc(NC(*)=O)cc2)cc1 (repeat unit) = 235.00

response.value for *CC(*)c1ccc(/C(Cc2ccccc2)=N/O)cc1 (repeat unit) (field: glass transition temperature) = 111.00

*CCCCCCCCCCCCN1C(=O)c2ccc(C(c3ccc4c(c3)C(=O)N(*)C4=O)(C(F)(F)F)C(F)(F)F)cc2C1=O (repeat unit) has a reported glass transition temperature of 101.00

In plain terms, *c1cccc(-n2c(=O)c3cc4c(=O)n(*)c(=O)c4cc3c2=O)n1 (repeat unit) has a documented glass transition temperature of 183.50

Per the record, *CC(*)(C)C(=O)OCc1ccc[se]1 (repeat unit) has glass transition temperature of 56.00

Item: *=Nc1ccc(Oc2ccc(C(c3ccc(Oc4ccc(/N=C5/OC(=O)c6cc7c(cc65)C(=*)OC7=O)cc4)cc3)(C(F)(F)F)C(F)(F)F)cc2)cc1 (repeat unit) | glass transition temperature: 287.00

The recorded glass transition temperature for *CC(*)(C)C(=O)OCC1(C)COCOC1 (repeat unit) is 142.00

The recorded glass transition temperature for entry *c1ccc(-c2nc3cc4sc(*)nc4cc3s2)cc1 (repeat unit) equals 25.00

Lookup result for *CC(*)(C)C(=O)Oc1ccc(C(=O)/C=C/c2ccc(OCc3ccccc3)cc2)cc1 (repeat unit) ; measured glass transition temperature: 152.00

Looking up *O[Si](C)(C)O[Si](C)(C)O[Si](C)(C)O[Si](C)(C)c1ccc(Oc2ccc([Si](*)(C)C)cc2)cc1 (repeat unit) , I see its glass transition temperature listed as -52.00

Kindly note the recorded glass transition temperature for *C(=O)Nc1cccc(Oc2cccc(Oc3cccc(Oc4cccc(Oc5cccc(NC(=O)c6ccc7c(c6)C(=O)N(c6ccc(Oc8cccc(Oc9ccc(N%10C(=O)c%11ccc(*)cc%11C%10=O)cc9)c8C#N)cc6)C7=O)c5)c4C#N)c3)c2C#N)c1 (repeat unit) , which is 199.00

GET /value?item= *Oc1ccc(-c2ccc(OC(=O)c3ccc(C(*)=O)cc3)cc2)cc1 (repeat unit) &field=glass transition temperature returns 267.00
